Reported PBM binding z-score by item:
test system: PPARg homodimer (NR concentration 180 nM); assay: PBM binding z-score (relative to random genomic background probes); higher = stronger binding; sequences stand for … in GC…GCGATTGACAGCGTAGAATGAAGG

> print(dat)
                      primary.sequence  measurement
 1  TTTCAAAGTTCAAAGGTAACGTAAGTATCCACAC          3.4
 2  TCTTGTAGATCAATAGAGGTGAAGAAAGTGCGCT        -0.35
 3  TCAGACAGGTGAAGGTCACTCAGGTACGCAGTCG         2.38
 4  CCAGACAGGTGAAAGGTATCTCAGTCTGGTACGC        0.656
 5  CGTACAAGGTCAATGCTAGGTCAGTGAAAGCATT         5.84
 6  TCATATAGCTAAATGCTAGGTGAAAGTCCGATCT        0.101
 7  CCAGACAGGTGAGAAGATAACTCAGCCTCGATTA        0.364
 8  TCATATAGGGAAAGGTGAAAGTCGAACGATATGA        0.702
 9  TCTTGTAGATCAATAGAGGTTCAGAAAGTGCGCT       -0.371
10  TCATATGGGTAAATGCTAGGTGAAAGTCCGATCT      -0.0354

**Query** Fill in reported PBM binding z-score for this entry: `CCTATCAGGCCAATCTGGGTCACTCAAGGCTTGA`
**Result** 1.45

**Query** Fill in reported PBM binding z-score for this entry: `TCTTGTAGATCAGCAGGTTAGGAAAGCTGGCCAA`
**Result** 0.0866

**Query** Fill in reported PBM binding z-score for this entry: `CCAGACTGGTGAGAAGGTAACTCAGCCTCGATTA`
**Result** 0.4

**Query** Fill in reported PBM binding z-score for this entry: `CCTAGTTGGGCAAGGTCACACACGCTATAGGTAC`
**Result** 2.56

**Query** Fill in reported PBM binding z-score for this entry: `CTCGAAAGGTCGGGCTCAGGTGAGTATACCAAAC`
**Result** 1.13
